Data provenance: patent US20230295157A1

Tested Target: human plasma kallikrein (Homo sapiens (Human), UniProt P03952)
Sequence (P03952 391-638): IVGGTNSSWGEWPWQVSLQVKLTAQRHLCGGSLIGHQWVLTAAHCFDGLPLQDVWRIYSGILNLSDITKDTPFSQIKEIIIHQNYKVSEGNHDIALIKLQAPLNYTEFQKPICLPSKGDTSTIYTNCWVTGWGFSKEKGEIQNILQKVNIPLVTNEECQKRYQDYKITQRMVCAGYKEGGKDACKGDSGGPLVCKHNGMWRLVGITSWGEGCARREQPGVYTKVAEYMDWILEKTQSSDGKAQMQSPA
Sequence (P03952 20-390 partner): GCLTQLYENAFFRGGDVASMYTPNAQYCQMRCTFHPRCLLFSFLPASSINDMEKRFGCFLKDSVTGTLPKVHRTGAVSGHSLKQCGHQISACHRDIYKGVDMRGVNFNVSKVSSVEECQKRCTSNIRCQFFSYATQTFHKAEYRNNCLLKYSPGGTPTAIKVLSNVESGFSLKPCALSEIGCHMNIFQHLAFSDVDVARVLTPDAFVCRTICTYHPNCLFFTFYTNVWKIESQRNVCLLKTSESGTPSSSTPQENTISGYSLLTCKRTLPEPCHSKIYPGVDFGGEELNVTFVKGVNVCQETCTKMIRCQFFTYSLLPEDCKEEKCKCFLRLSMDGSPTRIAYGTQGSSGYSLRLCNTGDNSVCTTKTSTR
Protocol Details: Kallikrein inhibition assay (FLINT) utilizing a quenched AMC peptide substrate
Assay type: biochemical
Test Settings: 30 min preincubation, kinetic reads over 30 min, Z-Gly-Pro-Arg-AMC substrate 50 μM; read-out: Kallikrein Kin Inh IC50
Experimental Readout: IC50 (nM)

| Compound | IC50 [nM] |
| --- | --- |
| Nc1nccc(-c2[nH]c([C@@H]3CC[C@@H]4CC(c5cc(Cl)ccc5-n5cnnn5)=CC(=O)N43)nc2F)c1F (single isomer, unassigned) | 2.6 |

(P) O=C1Nc2ccc(-c3cnc([C@@H]4CC[C@@H]5CC(c6c(-n7cnnn7)ccc(Cl)c6F)=CC(=O)N54)[nH]3)cc2CO1 (relative stereo)
(Q) NC(=O)c1sc(-c2c[nH]c([C@@H]3CC[C@H]4CC(c5c(-n6cnnn6)ccc(Cl)c5F)=CC(=O)N43)n2)cc1F
Lower value of IC50 belongs to which: P or Q ? Answer by stating the label of the chosen item. P

(I) [2H]c1c(N)nc(F)c(-c2cnc([C@@H]3CC[C@@H]4CC(c5c(-n6cnnn6)ccc(Cl)c5F)=CC(=O)N43)[nH]2)c1[2H]
(II) O=C1C=C(c2c(-n3cnnn3)ccc(Cl)c2F)CC2CCC(c3nc(-c4cccc(-c5ccn[nH]5)n4)c(F)[nH]3)N12 (single isomer, unassigned)
Which one would you say has the larger IC50 value: I , or II ? Answer by stating the label of the chosen item. II
(II: 25.9 nM, I: 8.9 nM)
